Tested on: biotinyl-Trp-oxazolone
Procedure Details: self-aminoacylation, catalytic enhancement (BWO) (fold over background); higher = more active; k-Seq, kA / k0A0; sequences stand for … in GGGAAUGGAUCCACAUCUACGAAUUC…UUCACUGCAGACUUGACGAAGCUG
Fewer inactive variants are shown than the library holds.

>  <Sequence Entry>
CUACAAUUCAAGCAAUCGGUC [Fam1B.1 aminoacylation ribozyme variant]

>  <self-aminoacylation>
1.61

$$$$
>  <Sequence Entry>
AUUACCCUGGUCAUCGUGGGA [Fam2.1 aminoacylation ribozyme variant]

>  <self-aminoacylation>
1.98

$$$$
>  <Sequence Entry>
AUUCACCAAUGUCAUCGGGUG [Fam2.2 aminoacylation ribozyme variant]

>  <self-aminoacylation>
8.56

$$$$
>  <Sequence Entry>
CUAAUUCAAACAAUCGGGCUG [Fam1A.1 aminoacylation ribozyme variant]

>  <self-aminoacylation>
1.14

$$$$
>  <Sequence Entry>
AUUACCCUGGUCAUGGAGGGA [Fam2.1 aminoacylation ribozyme variant]

>  <self-aminoacylation>
2.23

$$$$
>  <Sequence Entry>
AUUACCCUGGUCACCUAGUGA [Fam2.1 aminoacylation ribozyme variant]

>  <self-aminoacylation>
5.72

$$$$
>  <Sequence Entry>
CGGCACUUCAAGCAAUCGGUC [Fam1B.1 aminoacylation ribozyme variant]

>  <self-aminoacylation>
20.1

$$$$
>  <Sequence Entry>
AUUACCCUGGUCAUUGCGUGA [Fam2.1 aminoacylation ribozyme variant]

>  <self-aminoacylation>
17.1

$$$$
>  <Sequence Entry>
UGGUUUGCUAAUAGUCGCAAG [Fam3.1 aminoacylation ribozyme variant]

>  <self-aminoacylation>
4.47

$$$$

----------
Test system: biotinyl-Trp-oxazolone
Procedure Details: self-aminoacylation, catalytic enhancement (BWO) (fold over background); higher = more active; k-Seq, kA / k0A0; sequences stand for … in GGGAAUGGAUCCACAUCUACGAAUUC…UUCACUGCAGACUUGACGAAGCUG
Fewer inactive variants are shown than the library holds.

>  <Sequence Entry>
AUUCACCUAUGUGAUCGGGUG [Fam2.2 aminoacylation ribozyme variant]

>  <self-aminoacylation>
2.25

$$$$
>  <Sequence Entry>
AAGUUUACAAAUAGUCGCAAG [Fam3.1 aminoacylation ribozyme variant]

>  <self-aminoacylation>
1.98

$$$$
>  <Sequence Entry>
AAGUUUGCUAAUAGUAUCAAG [Fam3.1 aminoacylation ribozyme variant]

>  <self-aminoacylation>
0.998

$$$$
>  <Sequence Entry>
GUUACCCUGGUCAUCGAGUUA [Fam2.1 aminoacylation ribozyme variant]

>  <self-aminoacylation>
10

$$$$
>  <Sequence Entry>
AUUCCCCUACGUCAUCGGGUG [Fam2.2 aminoacylation ribozyme variant]

>  <self-aminoacylation>
16

$$$$
>  <Sequence Entry>
AUUCCCCUCGGUCAUCGGGUG [Fam2.2 aminoacylation ribozyme variant]

>  <self-aminoacylation>
22.6

$$$$
>  <Sequence Entry>
AUUACACUGGUUAUCGAGUGA [Fam2.1 aminoacylation ribozyme variant]

>  <self-aminoacylation>
10.3

$$$$
>  <Sequence Entry>
CUACUUCAAACAGUUGGUCUG [Fam1A.1 aminoacylation ribozyme variant]

>  <self-aminoacylation>
0.595

$$$$
>  <Sequence Entry>
AAGUUAGCUAAUAGCCGCAAG [Fam3.1 aminoacylation ribozyme variant]

>  <self-aminoacylation>
2.02

$$$$
>  <Sequence Entry>
AUCCACCUAGGUCAUCUGGUG [Fam2.2 aminoacylation ribozyme variant]

>  <self-aminoacylation>
2.77

$$$$
>  <Sequence Entry>
AUUACCCUGAUCCUCGAGUGA [Fam2.1 aminoacylation ribozyme variant]

>  <self-aminoacylation>
3.91

$$$$
>  <Sequence Entry>
CUUCACCUAUGUCAUCGGGUG [Fam2.2 aminoacylation ribozyme variant]

>  <self-aminoacylation>
4.46

$$$$
>  <Sequence Entry>
AUUACACUGGUCAUCGAGGGA [Fam2.1 aminoacylation ribozyme variant]

>  <self-aminoacylation>
2.72

$$$$
>  <Sequence Entry>
GUACUUCAAACAAUCGGGCUG [Fam1A.1 aminoacylation ribozyme variant]

>  <self-aminoacylation>
14.6

$$$$
>  <Sequence Entry>
AUUCACCGAGGUCGUCGGGUG [Fam2.2 aminoacylation ribozyme variant]

>  <self-aminoacylation>
3

$$$$
>  <Sequence Entry>
CUACUUUAAACAAUCGGUGUG [Fam1A.1 aminoacylation ribozyme variant]

>  <self-aminoacylation>
0.673

$$$$
>  <Sequence Entry>
AAGUUUGAUAGUAGUCGCAAG [Fam3.1 aminoacylation ribozyme variant]

>  <self-aminoacylation>
1.21

$$$$
>  <Sequence Entry>
ACUACCCUGGUCAUCGCGUGA [Fam2.1 aminoacylation ribozyme variant]

>  <self-aminoacylation>
19.3

$$$$
